- PROCEDURE_SUMMARY: In vitro metabolic stability in CES1−/− mouse plasma
- Type: in vitro ADME
- MEASUREMENT_CONDITIONS: C57BL/6, mouse, CES1−/− mouse plasma
Could you please report measured remaining at 1 h, 10 μM for the items listed next?

// lookup remaining at 1 h, 10 μM for CCCCCC(=O)Oc1c(OC)cc(-c2nc(-c3ccccc3)c(-c3cccs3)[nH]2)cc1OC [Compound P2]
< 30%

// lookup remaining at 1 h, 10 μM for COc1cc(-c2nc(-c3ccccc3)c(-c3cccs3)[nH]2)cc(OC)c1OC(=O)C(C)(C)C
< 30%

// lookup remaining at 1 h, 10 μM for COc1cc(-c2nc(-c3ccccc3)c(-c3cccs3)[nH]2)cc(OC)c1OC(C)=O
< 30%

// lookup remaining at 1 h, 10 μM for COc1cc(-c2nc(-c3ccccc3)c(-c3cccs3)[nH]2)cc(OC)c1OC(=O)OC(OC(=O)C(C)(C)C)c1ccccc1 (stereo not shown)
> 75%

* * *

- PROCEDURE_SUMMARY: In vitro metabolic stability in CES1−/− mouse brain homogenate
- Format: in vitro ADME
- MEASUREMENT_CONDITIONS: C57BL/6, mouse, CES1−/− mouse brain homogenate
Could you please report measured remaining at 1 h, 10 μM for the items listed next?

// lookup remaining at 1 h, 10 μM for COc1cc(-c2nc(-c3ccccc3)c(-c3cccs3)[nH]2)cc(OC)c1OCOP(=O)(O)OCOC(=O)OC(C)C
> 75%

// lookup remaining at 1 h, 10 μM for COc1cc(-c2nc(-c3ccccc3)c(-c3cccs3)[nH]2)cc(OC)c1OC(=O)C(C)(C)C
> 75%

// lookup remaining at 1 h, 10 μM for COc1cc(-c2nc(-c3ccccc3)c(-c3cccs3)[nH]2)cc(OC)c1OC(=O)OC(OC(=O)C(C)(C)C)c1ccccc1 (stereo not shown)
≥ 50%

// lookup remaining at 1 h, 10 μM for CCCCCC(=O)Oc1c(OC)cc(-c2nc(-c3ccccc3)c(-c3cccs3)[nH]2)cc1OC [Compound P2]
≥ 50%

* * *

- PROCEDURE_SUMMARY: In vitro metabolic stability in CES1−/− mouse plasma
- Format: in vitro ADME
- MEASUREMENT_CONDITIONS: C57BL/6, mouse, plasma
Could you please report measured remaining at 1 h, 10 μM for the items listed next?

// lookup remaining at 1 h, 10 μM for COc1cc(-c2nc(-c3ccccc3)c(-c3cccs3)[nH]2)cc(OC)c1OC(=O)N1CCC(N2CCCCC2)CC1 [Compound P1]
> 75%

// lookup remaining at 1 h, 10 μM for CCC1CC(N2CCCCC2)CC(CC)N1C(=O)Oc1c(OC)cc(-c2nc(-c3ccccc3)c(-c3cccs3)[nH]2)cc1OC (stereo not drawn) [Compound P18]
> 75%

// lookup remaining at 1 h, 10 μM for COc1cc(-c2nc(-c3ccccc3)c(-c3cccs3)[nH]2)cc(OC)c1OC(=O)N(C)C [Compound P5]
> 75%

These data points were gathered from paper PMC9980655.
